Molecular target: recombinant HDAC6 (Homo sapiens, UniProt Q9UBN7)
Sequence (Q9UBN7 1-1215): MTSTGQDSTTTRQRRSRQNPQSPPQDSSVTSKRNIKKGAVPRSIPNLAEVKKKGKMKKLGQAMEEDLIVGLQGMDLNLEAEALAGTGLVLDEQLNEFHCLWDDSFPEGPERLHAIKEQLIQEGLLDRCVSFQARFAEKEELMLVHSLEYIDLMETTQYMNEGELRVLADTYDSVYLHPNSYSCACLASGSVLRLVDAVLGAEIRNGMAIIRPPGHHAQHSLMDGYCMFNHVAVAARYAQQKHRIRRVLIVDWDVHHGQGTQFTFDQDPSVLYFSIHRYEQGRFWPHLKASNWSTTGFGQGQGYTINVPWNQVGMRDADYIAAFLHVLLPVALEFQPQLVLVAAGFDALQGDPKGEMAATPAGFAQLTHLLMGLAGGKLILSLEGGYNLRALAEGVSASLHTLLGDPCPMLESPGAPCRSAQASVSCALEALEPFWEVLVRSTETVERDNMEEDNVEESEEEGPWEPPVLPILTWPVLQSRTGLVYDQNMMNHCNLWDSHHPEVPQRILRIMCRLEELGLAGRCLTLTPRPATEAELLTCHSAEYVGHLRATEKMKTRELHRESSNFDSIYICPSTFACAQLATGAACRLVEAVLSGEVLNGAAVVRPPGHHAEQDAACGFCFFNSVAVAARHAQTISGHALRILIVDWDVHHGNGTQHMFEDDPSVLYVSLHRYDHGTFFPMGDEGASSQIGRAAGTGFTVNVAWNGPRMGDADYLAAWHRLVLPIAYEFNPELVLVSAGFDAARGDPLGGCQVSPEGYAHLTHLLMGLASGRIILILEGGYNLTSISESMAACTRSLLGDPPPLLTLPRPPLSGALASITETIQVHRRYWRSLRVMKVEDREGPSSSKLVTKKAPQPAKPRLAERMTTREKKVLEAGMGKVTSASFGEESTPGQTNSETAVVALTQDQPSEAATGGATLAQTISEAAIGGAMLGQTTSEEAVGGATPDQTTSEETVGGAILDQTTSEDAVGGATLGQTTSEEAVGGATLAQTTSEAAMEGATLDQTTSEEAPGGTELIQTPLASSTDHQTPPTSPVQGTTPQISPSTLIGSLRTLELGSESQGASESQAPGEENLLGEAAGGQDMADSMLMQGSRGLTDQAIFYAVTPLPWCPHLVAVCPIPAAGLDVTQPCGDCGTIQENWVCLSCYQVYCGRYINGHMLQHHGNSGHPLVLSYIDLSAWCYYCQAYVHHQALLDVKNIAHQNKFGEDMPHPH
Test: In vitro HDAC enzymatic assay, HDAC6
pIC50: −log10 of the molar value.
Observable: pIC50

{"columns": ["Compound", "Readout Value"],
 "data": [
  ["O=C(CCCCCC(=O)NN=Cc1ccc(-c2ccccc2)cc1)NO [crebinostat]", 8.03]
]}
